The origin of these recorded values is paper PMC7729925.

- Target Entity: NTCP (Homo sapiens, UniProt Q14973)
- Construct: expressed in transfected cells
- Sequence (Q14973 whole entry): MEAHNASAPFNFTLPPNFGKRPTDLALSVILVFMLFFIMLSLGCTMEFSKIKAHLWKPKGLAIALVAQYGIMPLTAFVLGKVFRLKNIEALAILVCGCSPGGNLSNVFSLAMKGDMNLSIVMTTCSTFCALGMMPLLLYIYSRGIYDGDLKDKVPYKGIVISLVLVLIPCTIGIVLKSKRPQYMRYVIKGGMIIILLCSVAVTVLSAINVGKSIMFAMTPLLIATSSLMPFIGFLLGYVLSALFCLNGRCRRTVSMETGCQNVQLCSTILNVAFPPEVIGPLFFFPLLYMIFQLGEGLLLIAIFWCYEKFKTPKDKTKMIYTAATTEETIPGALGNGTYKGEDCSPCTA
- Protocol: [3H]TC transport (bile acid uptake) inhibition in NTCP-HEK293 cells
- Format: cell-based
Metric: IC50

Q: IC50 for C=C(C)[C@@H]1CC[C@]2(C)CC[C@]3(C)[C@H](CC[C@@H]4[C@@]5(C)CC[C@H](O)C(C)(C)[C@@H]5CC[C@]43C)[C@@H]12 ?
Result: > 1000 µM

----------
- Target Entity: NTCP (Homo sapiens, UniProt Q14973)
- Construct: expressed in transfected cells
- Protocol: [3H]preS1 (myr-preS1_2-48 lipopeptide) binding inhibition in NTCP-HEK293 cells
- Measurement Conditions: mean IC50; 5 nM [3H]preS1; NTCP-HEK293 cells; standard pH 7.4; read-out: IC50 [3H]preS1 binding inhibition
Can you tell me IC50 for the items I'm about to list?
Numbers only, in µM.

C=C(C)C1CCC2(CO)CCC3(C)C(CCC4C5(C)CCC(OC(=O)C=Cc6ccc(O)c(O)c6)C(C)(C)C5CCC43C)C12 (stereo not drawn) [Compound 27, 3-O-Caffeoylbetulin] = 6

Below are some compounds; for each one, tell me its IC50.
1. C=C(C)C1CCC2(C=NO)CCC3(C)C(CCC4C5(C)CCC(O)C(C)(C)C5CCC43C)C12 (stereo not drawn) [Compound 6, Betulinaldehyde oxime]
2. C=C(C)C1CCC2(COC(C)=O)CCC3(C)C(CCC4C5(C)CCC(OC(C)=O)C(C)(C)C5CCC43C)C12 (stereo not drawn) [Compound 24, 3,28-Di-O-acetylbetulin]
3. CC1(COc2ccc(CC3SC(=O)NC3=O)cc2)CCCCC1 (stereo not drawn) [ciglitazone, reference compound]

Result:
[11, 199, 1.3]
